biological target: T1, human IgG4 (human, UniProt P01861-1 1-327 = IgG part); assay: batch binding, immobilised ligand
T1 construct: Calbiochem; plasma IgG4 in anisotropy studies, myeloma-derived (cat. 400126) in batch/column studies; also called hIgG4
T1 sequence (P01861 other isoform, or with tags, fused parts or gaps): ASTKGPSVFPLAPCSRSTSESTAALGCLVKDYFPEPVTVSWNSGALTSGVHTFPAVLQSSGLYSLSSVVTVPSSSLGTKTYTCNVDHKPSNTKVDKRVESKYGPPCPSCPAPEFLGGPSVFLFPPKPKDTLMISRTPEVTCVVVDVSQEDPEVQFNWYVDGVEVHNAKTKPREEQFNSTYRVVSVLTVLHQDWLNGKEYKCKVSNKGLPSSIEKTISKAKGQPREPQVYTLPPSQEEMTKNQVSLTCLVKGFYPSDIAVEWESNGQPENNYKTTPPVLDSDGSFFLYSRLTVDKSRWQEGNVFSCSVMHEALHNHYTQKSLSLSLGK
Positions of bridges follow the written chain, without caps; N, C: chain ends.

BINDER	UNIT OF MEASURE	Bound (% of Total Load)
Ac-GDRRACSRDWSGALVWCAGHEPGPEGGGK-NH2 (not fully specified (bridges); printed as Ac-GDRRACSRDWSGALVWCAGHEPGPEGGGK-NH2; cysteine pairing not given here, immobilised on Sepharose in batch/column assays) [DX253]	%	60
Ac-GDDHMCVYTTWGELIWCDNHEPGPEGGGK-NH2 (disulfide 6-17 (inferred), Synthetic disulfide-cyclised peptide) [DX249]	%	61
Ac-GDWGECTVTSYGELIWCGGLEPGPEGGGK-NH2 (not fully specified (bridges); printed as Ac-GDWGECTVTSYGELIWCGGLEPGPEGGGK-NH2; cysteine pairing not given here, Immobilised on Sepharose) [DX1070]	%	59
